Target System: human recombinant ALK1 (GST fused to ALK1 intracellular domain [His142-Gln503]) (Homo sapiens, UniProt P37023)
Construct: GST fused to ALK1 intracellular domain [His142-Gln503]
Sequence (P37023 142-503): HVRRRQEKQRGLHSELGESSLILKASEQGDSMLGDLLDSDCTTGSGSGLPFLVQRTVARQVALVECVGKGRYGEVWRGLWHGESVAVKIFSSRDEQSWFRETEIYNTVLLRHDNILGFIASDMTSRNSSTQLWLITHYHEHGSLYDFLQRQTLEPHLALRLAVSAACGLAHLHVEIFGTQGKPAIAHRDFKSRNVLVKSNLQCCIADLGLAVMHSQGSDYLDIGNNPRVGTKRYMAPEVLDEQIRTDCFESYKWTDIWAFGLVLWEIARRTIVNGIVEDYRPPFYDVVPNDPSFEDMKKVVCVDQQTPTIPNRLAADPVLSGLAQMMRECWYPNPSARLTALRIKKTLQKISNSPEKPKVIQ
Assay Protocol: ALK1-Kinase Flashplate-Assay
Run Parameters: 0.5 μM ATP, biotinylated α-casein substrate; read-out: Assay 1 (ALK1-Kinase Flashplate-Assay IC50 class)
pIC50: −log10 of the molar value.
Here, each record is paired with measured pIC50 data.

[
  {
    "Compound": "N#Cc1ccc(-c2cnn3ccc(Nc4ccc(O)cc4)nc23)cc1",
    "pIC50": "5.00 to 6.00"
  },
  {
    "Compound": "c1ccc(Nc2ccn3ncc(-c4cccnc4)c3n2)cc1",
    "pIC50": "5.00 to 6.00"
  },
  {
    "Compound": "c1ccc(Oc2ccc(Nc3ccn4ncc(-c5ccncc5)c4n3)cc2)cc1",
    "pIC50": "5.00 to 6.00"
  },
  {
    "Compound": "COc1cc(-c2cnn3ccc(Nc4ccc(F)cc4)nc23)cc(OC)c1OC",
    "pIC50": "> 6.00"
  },
  {
    "Compound": "c1ccc(Nc2ccn3ncc(-c4ccsc4)c3n2)cc1",
    "pIC50": "5.00 to 6.00"
  },
  {
    "Compound": "Oc1cccc(-c2cnn3ccc(NC4CCC(O)CC4)nc23)c1 (centres unmarked)",
    "pIC50": "> 6.00"
  },
  {
    "Compound": "Oc1ccc(-c2cnn3ccc(NCc4ccncc4)nc23)cc1",
    "pIC50": "> 6.00"
  },
  {
    "Compound": "COc1ccc(-c2cnn3ccc(Nc4ccc(NS(=O)(=O)c5ccc(C)cc5)cc4)nc23)cc1OC",
    "pIC50": "> 6.00"
  },
  {
    "Compound": "CC(=O)c1cccc(-c2cnn3ccc(NCc4cccnc4)nc23)c1",
    "pIC50": "5.00 to 6.00"
  },
  {
    "Compound": "c1ccc(Cn2cc(-c3cnn4ccc(NCc5ccncc5)nc34)cn2)cc1",
    "pIC50": "5.00 to 6.00"
  },
  {
    "Compound": "COc1ccc(Nc2ccn3ncc(-c4cccc(N)c4)c3n2)cn1",
    "pIC50": "5.00 to 6.00"
  }
]
